Data origin: ChEMBL document CHEMBL1136010

target: Cyclin-dependent kinase 4/cyclin D1 (Homo sapiens, UniProt P11802); test: Inhibitory concentration against Cyclin-dependent kinase 4-cyclin D1
Sequence (P11802 whole entry): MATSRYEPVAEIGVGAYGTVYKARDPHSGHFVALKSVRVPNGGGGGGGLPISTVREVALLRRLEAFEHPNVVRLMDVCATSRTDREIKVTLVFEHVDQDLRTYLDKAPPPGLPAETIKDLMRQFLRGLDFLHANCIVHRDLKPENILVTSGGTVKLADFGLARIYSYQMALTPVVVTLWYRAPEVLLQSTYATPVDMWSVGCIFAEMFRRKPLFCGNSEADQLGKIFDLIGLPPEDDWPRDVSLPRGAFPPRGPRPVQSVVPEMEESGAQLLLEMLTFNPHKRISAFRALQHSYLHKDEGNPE
Sequence (P24385 whole entry, further chain): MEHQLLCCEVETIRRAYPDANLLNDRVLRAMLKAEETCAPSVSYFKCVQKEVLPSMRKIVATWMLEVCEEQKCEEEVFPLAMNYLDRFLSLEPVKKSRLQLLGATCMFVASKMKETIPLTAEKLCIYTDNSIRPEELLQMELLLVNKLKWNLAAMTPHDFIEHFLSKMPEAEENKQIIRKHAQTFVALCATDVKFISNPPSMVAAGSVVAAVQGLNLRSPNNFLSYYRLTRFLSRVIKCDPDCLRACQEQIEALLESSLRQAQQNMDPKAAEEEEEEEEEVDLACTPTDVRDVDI
metric: pIC50
Give bare numbers, as −log10 of the molar value.

Solved entries:
NCC1CCN(CC(=O)Nc2cccc3c2C(=O)c2c-3n[nH]c2C2CCCCC2)CC1 = 6.44
CN1CCN(CC(=O)Nc2cccc3c2C(=O)c2c-3n[nH]c2-c2ccc(N(C)C)cc2)CC1 = 7.26
CSc1ccc(-c2[nH]nc3c2C(=O)c2c(NC(C)=O)cccc2-3)cc1 = 6.47
CC(=O)Nc1cccc2c1C(=O)c1c-2n[nH]c1-c1cccs1 = 5.35
CC(=O)Nc1cccc2c1C(=O)c1c(-c3ccc(C)cc3)n[nH]c1-2 = 6.31

Give pIC50; test system Cyclin-dependent kinase 4/cyclin D1 (Homo sapiens, UniProt P11802); molecule NC(=O)Nc1cccc2c1C(=O)c1c-2n[nH]c1-c1ccco1 6.08

###

Task for the reader: assign each of the following compounds its reported IC50.
target: Cyclin-dependent kinase 4/cyclin D1 (Homo sapiens, UniProt P11802); assay: Inhibitory concentration against Cyclin-dependent kinase 4-cyclin D1

Recorded IC50, per entry:
CC(=O)Nc1cccc2c1C(=O)c1c-2n[nH]c1-c1cccnc1 = > 1.6 µM
NC(=O)Nc1cccc2c1C(=O)c1c-2n[nH]c1C1CCCCC1 = > 0.81 µM

State IC50 (Cyclin-dependent kinase 4/cyclin D1 (Homo sapiens, UniProt P11802)) of Cc1cc(-c2[nH]nc3c2C(=O)c2c(NC(N)=O)cccc2-3)c(C)s1 . > 1.5 µM

###

molecular target: Cyclin-dependent kinase 4/cyclin D1 (Homo sapiens, UniProt P11802); experiment: Inhibitory concentration against Cyclin-dependent kinase 4-cyclin D1; type: protein-complex assay
metric: IC50

CC(=O)Nc1cccc2c1C(=O)c1c-2n[nH]c1C1CC1 = > 3.7 µM

Give IC50 for all compounds that follow.
1. CCOc1ccc(-c2[nH]nc3c2C(=O)c2c(NC(C)=O)cccc2-3)cc1
2. CC(=O)Nc1cccc2c1C(=O)c1c-2n[nH]c1CC(C)C
3. CC(=O)Nc1cccc2c1C(=O)c1c-2n[nH]c1C1CCCCC1
4. CC(=O)Nc1cccc2c1C(=O)c1c-2n[nH]c1C(C)(C)C

["> 0.58 µM", "> 3.5 µM", "> 3.2 µM", "> 3.5 µM"]

Please give measured IC50 of the following entry: CC(=O)Nc1cccc2c1C(=O)c1c-2n[nH]c1-c1cc(Cl)sc1Cl > 2.6 µM

###

target: Cyclin-dependent kinase 4/cyclin D1 (Homo sapiens); assay: Inhibitory concentration against Cyclin-dependent kinase 4-cyclin D1
pIC50: −log10 of the molar value.
For each record, write down the corresponding pIC50.

// for each compound in input: emit pIC50
1. CC(=O)Nc1cccc2c1C(=O)c1c(-c3ccco3)n[nH]c1-2
2. NC(=O)C1CCN(CC(=O)Nc2cccc3c2C(=O)c2c-3n[nH]c2C2CCCCC2)CC1
3. CC(=O)Nc1cccc2c1C(=O)c1c-2n[nH]c1-c1sccc1C
4. CCCc1[nH]nc2c1C(=O)c1c(NC(C)=O)cccc1-2

< 5.46
< 6.24
< 5.51
< 5.43

###

molecular target: Cyclin-dependent kinase 2/cyclin E (Homo sapiens, UniProt P24941); experiment: Inhibitory concentration against Cyclin-dependent kinase 2-cyclin E
pIC50: −log10 of the molar value.
metric: pIC50

CCCc1[nH]nc2c1C(=O)c1c(NC(C)=O)cccc1-2 = < 5.43
CCCCc1[nH]nc2c1C(=O)c1c(NC(C)=O)cccc1-2 = < 5.46

Determine its reported pIC50: CCc1[nH]nc2c1C(=O)c1c(NC(=O)CN3CCC(C(N)=O)CC3)cccc1-2 < 6.89

###

biological target: Cyclin-dependent kinase 4/cyclin D1 (Homo sapiens, UniProt P11802); test: Inhibitory concentration against Cyclin-dependent kinase 4-cyclin D1
pIC50: −log10 of the molar value.
For each of the compounds below, state its pIC50.

Observe how each entry below is paired with its result.
CCCCc1[nH]nc2c1C(=O)c1c(NC(C)=O)cccc1-2 = < 5.46
CCc1[nH]nc2c1C(=O)c1c(NC(N)=O)cccc1-2 = < 5.70

With those in mind, consider the next compound.
Check Cyclin-dependent kinase 4/cyclin D1 (Homo sapiens, UniProt P11802) data and give pIC50 for CCCCc1ccc(-c2[nH]nc3c2C(=O)c2c(NC(C)=O)cccc2-3)cc1 . < 5.55

###

molecular target: Cyclin-dependent kinase 4/cyclin D1 (Homo sapiens, UniProt P11802); experiment: Inhibitory concentration against Cyclin-dependent kinase 4-cyclin D1
pIC50: −log10 of the molar value.
metric: pIC50

The examples below pair each entry with its known result.
CC(C)c1[nH]nc2c1C(=O)c1c(NC(N)=O)cccc1-2 = < 5.72
CCc1[nH]nc2c1C(=O)c1c(NC(C)=O)cccc1-2 = < 5.41
CC(=O)Nc1cccc2c1C(=O)c1c-2n[nH]c1-c1ccc(Oc2ccccc2)cc1 = < 5.60
CCc1[nH]nc2c1C(=O)c1c(NC(=O)CN3CCC(C(N)=O)CC3)cccc1-2 = < 5.59

For every record below, what is its pIC50?
1. CC(=O)Nc1cccc2c1C(=O)c1c-2n[nH]c1C
2. CC(=O)Nc1cccc2c1C(=O)c1c-2n[nH]c1C(C)C
3. NC(=O)C1CCN(CC(=O)Nc2cccc3c2C(=O)c2c-3n[nH]c2C2CC2)CC1

1: < 5.38; 2: < 5.43; 3: < 7.00
